- Test system: Jurkat
- test_method_notes: Inhibition of TNF-alpha-induced necroptosis in FADD-deficient Jurkat T cells
- Format: functional, cell-based, Homo sapiens
- Parameters: concentration or dose not given beside the values
attribute_measured: Activity (%)
Answers are plain numbers, in %.

# annotated cases, reported Activity shown
compound=CSc1nc2sc3c(c2c(=O)n1-c1ccc(C)c(C)c1)CCCC3 assay_value=38
compound=COc1ccc(-n2c(SCCO)nc3sc4c(c3c2=O)CCC4)cc1 assay_value=100
compound="Cc1ccc(-n2c(SCC#N)nc3sc4c(c3c2=O)CC(C)CC4)cc1C (stereo unspecified)" assay_value=38
compound=Cc1sc2nc(SCC#N)n(-c3ccc(F)cc3)c(=O)c2c1C assay_value=87.6
compound=COc1ccc(-n2c(SCCO)nc3sc(C)c(C)c3c2=O)cc1 assay_value=78

Note: attention shifts to another entry.
INPUT: Please look up its Activity: COc1ccc(-n2c(SCC#N)nc3sc4c(c3c2=O)CCCC4)cc1OC
OUTPUT: 57
